# tested_target: Human TDO (hTDO)-transfected CHO-K1 cells (Homo sapiens (Human))
# Sequence (P48775 whole entry): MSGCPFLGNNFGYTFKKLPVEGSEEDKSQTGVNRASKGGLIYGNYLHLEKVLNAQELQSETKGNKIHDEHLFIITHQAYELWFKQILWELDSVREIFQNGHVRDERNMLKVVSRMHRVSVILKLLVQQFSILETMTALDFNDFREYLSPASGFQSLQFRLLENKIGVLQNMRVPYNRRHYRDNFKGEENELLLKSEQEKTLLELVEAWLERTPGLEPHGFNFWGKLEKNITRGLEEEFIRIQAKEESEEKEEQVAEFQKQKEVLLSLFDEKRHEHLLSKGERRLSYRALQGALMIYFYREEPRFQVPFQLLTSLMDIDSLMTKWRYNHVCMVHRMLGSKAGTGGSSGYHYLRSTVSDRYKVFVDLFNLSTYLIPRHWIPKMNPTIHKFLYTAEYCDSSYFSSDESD
# experimental_protocol: CHO-K1 cell based TDO assay
# particulars: hTDO cellular assay
pIC50: −log10 of the molar value. Structures can show the parent of a compound that is named as a salt.
quantity_kind: pIC50

Please review the entries below; each comes with its answer.
molecule	quantity_kind	observed
COC(=O)c1ccc(-c2nccc3c(Nc4ccc(F)c(Cl)c4)c(N)oc23)cc1	pIC50	5.70 to 6.30
Nc1oc2cnccc2c1Nc1ccc(F)c(C(F)(F)F)c1	pIC50	5.70 to 6.30
Nc1oc2c(-c3ccncc3)nc(F)cc2c1Nc1ccc(F)c(Cl)c1	pIC50	5.70 to 6.30

Any idea what pIC50 was measured for Cc1ccc(Nc2c(N)oc3cnccc23)c(C)c1 ?
5.70 to 6.30

Any idea what pIC50 was measured for Nc1oc2c(-c3cccc4ccccc34)nccc2c1Nc1ccc(F)c(Cl)c1 ?
> 6.30

Any idea what pIC50 was measured for Nc1sc2c(Br)cccc2c1Nc1ccc(F)c(Cl)c1 [Compound 210, hydrochloride] ?
5.70 to 6.30

Any idea what pIC50 was measured for Nc1sc2ccccc2c1Nc1ccc2c(c1)OCO2 ?
< 5.70

Any idea what pIC50 was measured for COc1cc2c(Nc3ccc(F)c(Cl)c3)c(N)oc2c(C)n1 ?
5.70 to 6.30

Any idea what pIC50 was measured for Nc1oc2cnccc2c1Nc1ccccc1 ?
> 6.30

* * *

# tested_target: IDO1 in HeLa cells (Homo sapiens (Human), UniProt P14902)
# Sequence (P14902 whole entry): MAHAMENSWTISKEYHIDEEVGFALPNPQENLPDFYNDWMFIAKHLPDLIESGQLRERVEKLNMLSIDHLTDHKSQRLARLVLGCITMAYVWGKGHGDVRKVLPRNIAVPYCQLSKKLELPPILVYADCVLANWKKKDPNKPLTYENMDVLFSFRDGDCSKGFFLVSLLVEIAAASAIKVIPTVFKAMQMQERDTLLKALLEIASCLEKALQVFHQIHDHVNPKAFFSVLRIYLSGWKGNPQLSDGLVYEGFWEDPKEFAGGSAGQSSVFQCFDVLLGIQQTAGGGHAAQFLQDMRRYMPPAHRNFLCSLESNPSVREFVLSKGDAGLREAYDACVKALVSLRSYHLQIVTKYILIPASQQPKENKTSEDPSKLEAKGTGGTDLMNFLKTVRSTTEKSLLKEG
# experimental_protocol: HeLa cell based IDO1 assay (IFNγ-induced, KYN in supernatant)
quantity_kind: IC50

chemical_structure	IC50
COc1cc2c(Nc3ccc(F)c(Cl)c3)c(N)oc2c(-c2ccc(F)cc2)n1	200 to 1000 nM
Cc1cc(-c2cccc3c(Nc4ccc(F)c(Cl)c4)c(N)sc23)ccn1	< 200 nM
Nc1oc2cnccc2c1Nc1ccc(F)c(Cl)c1	< 200 nM
Nc1oc2c(Cl)nccc2c1Nc1ccc(F)c(Cl)c1	< 200 nM
COc1ccccc1-c1nccc2c(Nc3ccc(F)c(F)c3)c(N)oc12	< 200 nM
Nc1oc2c(F)nccc2c1Nc1ccc(F)c(C(F)(F)F)c1	< 200 nM

Enter reported IC50 observed with IDO1 in HeLa cells (Homo sapiens (Human), UniProt P14902) for CNC(=O)c1cc(-c2nccc3c(Nc4cccc(C(F)(F)F)c4)c(N)oc23)ccn1
< 200 nM

Enter reported IC50 observed with IDO1 in HeLa cells (Homo sapiens (Human), UniProt P14902) for N#Cc1nccc2c(Nc3ccccc3Cl)c(N)oc12
< 200 nM

Enter reported IC50 observed with IDO1 in HeLa cells (Homo sapiens (Human), UniProt P14902) for COc1cc2c(Nc3ccc(F)c(Cl)c3)c(N)oc2c(C)n1
< 200 nM

* * *

# tested_target: IDO1 in HeLa cells (Homo sapiens (Human))
# experimental_protocol: HeLa cell based IDO1 assay (IFNγ-induced, KYN in supernatant)
pIC50: −log10 of the molar value.
quantity_kind: pIC50

Please review the entries below; each comes with its answer.
compound	tested_target	pIC50
Nc1sc2ccc(Cl)cc2c1Nc1ccc(F)cc1 [Compound 131]	IDO1 in HeLa cells (Homo sapiens (Human))	6.00 to 6.70
Cc1cc(C)cc(-c2nccc3c(Nc4ccc(F)c(Cl)c4)c(N)oc23)c1 [Compound 277]	IDO1 in HeLa cells (Homo sapiens (Human))	> 6.70
Nc1oc2cnccc2c1Nc1cc(Cl)c(F)c(Cl)c1 [Compound 47]	IDO1 in HeLa cells (Homo sapiens (Human))	6.00 to 6.70
Cc1cc(-c2nccc3c(Nc4cc(Cl)ccc4F)c(N)oc23)ccn1 [Compound 263]	IDO1 in HeLa cells (Homo sapiens (Human))	> 6.70
Cc1ccc(Nc2c(N)oc3cnccc23)cc1Br [Compound 21]	IDO1 in HeLa cells (Homo sapiens (Human))	> 6.70

Enter reported pIC50 observed with IDO1 in HeLa cells (Homo sapiens (Human)) for Cc1cccc(Nc2c(N)oc3cnccc23)c1 [Compound 48]
> 6.70

Enter reported pIC50 observed with IDO1 in HeLa cells (Homo sapiens (Human)) for Cc1ccc2sc(N)c(Nc3ccc(F)c(Cl)c3)c2c1 [Compound 214]
> 6.70

Enter reported pIC50 observed with IDO1 in HeLa cells (Homo sapiens (Human)) for Cc1cc(-c2nccc3c(Nc4ccc(F)c(Cl)c4)c(N)oc23)cc(C)n1 [Compound 164]
> 6.70

Enter reported pIC50 observed with IDO1 in HeLa cells (Homo sapiens (Human)) for Cc1cc(-c2nccc3c(Nc4cccc(Cl)c4F)c(N)oc23)ccn1 [Compound 264]
> 6.70

Enter reported pIC50 observed with IDO1 in HeLa cells (Homo sapiens (Human)) for COc1cc2c(Nc3ccc(F)c(Cl)c3)c(N)oc2c(-c2ccc(C#N)cc2)n1 [Compound 173]
> 6.70

Enter reported pIC50 observed with IDO1 in HeLa cells (Homo sapiens (Human)) for Nc1oc2c(-c3ccnc(C(=O)N4CCCCC4)c3)nccc2c1Nc1ccc(F)c(Cl)c1 [Compound 271]
> 6.70

Enter reported pIC50 observed with IDO1 in HeLa cells (Homo sapiens (Human)) for Cc1cc(Br)ccc1Nc1c(N)sc2ccccc12 [Compound 237]
6.00 to 6.70

Enter reported pIC50 observed with IDO1 in HeLa cells (Homo sapiens (Human)) for Cc1cc(-c2nccc3c(Nc4cccc(F)c4)c(N)oc23)ccn1 [Compound 243]
> 6.70

* * *

# tested_target: IDO1 in HeLa cells (Homo sapiens (Human), UniProt P14902)
# experimental_protocol: HeLa cell based IDO1 assay (IFNγ-induced, KYN in supernatant)
pIC50: −log10 of the molar value.
Items are presented alongside their recorded pIC50.

Please review the entries below; each comes with its answer.
compound	pIC50
Nc1sc2ccccc2c1Nc1ccc(F)c(F)c1	> 6.70
Nc1sc2ccccc2c1Nc1ccc(F)cc1	6.00 to 6.70
Cc1cc(Nc2c(N)oc3cnccc23)ccc1Cl	> 6.70
CNC(=O)c1cc(-c2nccc3c(Nc4ccc(F)c(F)c4)c(N)oc23)ccn1	> 6.70
Nc1oc2cnccc2c1Nc1ccc(Br)cc1	6.00 to 6.70

Any idea what pIC50 was measured for Nc1oc2c(-c3ccnc(C(=O)Nc4ccccn4)c3)nccc2c1Nc1ccc(F)c(Cl)c1 ?
> 6.70

Any idea what pIC50 was measured for Cc1cc(-c2nc(C)cc3c(Nc4ccc(F)c(Cl)c4)c(N)oc23)ccn1 ?
> 6.70

Any idea what pIC50 was measured for Nc1sc2ccc(Cl)cc2c1Nc1ccc(F)c(C(F)(F)F)c1 ?
6.00 to 6.70

Any idea what pIC50 was measured for Nc1oc2c(-c3cccnc3)nccc2c1Nc1ccc(F)c(Cl)c1 ?
> 6.70

Any idea what pIC50 was measured for Cc1cc(-c2nc(F)cc3c(Nc4ccc(F)cc4)c(N)oc23)ccn1 ?
> 6.70

* * *

Items are presented alongside their recorded IC50.
# tested_target: Human TDO (hTDO)-transfected CHO-K1 cells (Homo sapiens (Human))
# experimental_protocol: CHO-K1 cell based TDO assay
# particulars: hTDO cellular assay

chemical_structure	IC50
Nc1oc2cnccc2c1Nc1cccc(I)c1	500 to 2000 nM
Cc1cc(-c2cccc3c(Nc4cccc(Cl)c4)c(N)sc23)ccn1	500 to 2000 nM
Nc1sc2ccc(Br)cc2c1Nc1ccc(F)c(Cl)c1	> 2000 nM
CCOc1cc2c(Nc3ccc(F)c(Cl)c3)c(N)oc2c(-c2ccccc2)n1	> 2000 nM
CC(C)CNC(=O)c1cc(-c2nccc3c(Nc4ccc(F)c(Cl)c4)c(N)oc23)ccn1	> 2000 nM
Nc1sc2cnccc2c1Nc1ccc(F)c(Cl)c1	> 2000 nM
Cc1ccc(Nc2c(N)oc3cnccc23)cc1Br	500 to 2000 nM
O=C(Nc1oc2cnccc2c1Nc1ccc(F)c(Cl)c1)OCc1ccccc1	500 to 2000 nM

Kindly review the next compound as well.
Any idea what IC50 was measured for C#Cc1cccc(Nc2c(N)oc3c(CC)nccc23)c1 ?
500 to 2000 nM

* * *

Counter-ions that a name gives are not always drawn.
Measurement record for Human indoleamine 2,3-dioxygenase1 (hIDO1) (Homo sapiens (Human)); quantity recorded: IC50.

compound	IC50
Nc1sc2c(Br)cccc2c1Nc1ccc(F)c(Cl)c1 [Compound 210, hydrochloride]	< 200 nM
COc1cc2c(Nc3ccc(F)c(Cl)c3)c(N)oc2c(C)n1	< 200 nM

Kindly review the next compound as well.
Enter reported IC50 observed with Human indoleamine 2,3-dioxygenase1 (hIDO1) (Homo sapiens (Human)) for CN(c1ccccc1)c1c(N)sc2ccccc12 [Compound 135, hydrochloride]
> 1000 nM

* * *

# tested_target: Human indoleamine 2,3-dioxygenase1 (hIDO1) (Homo sapiens (Human), UniProt P14902)
# Sequence (P14902 whole entry): as above
# experimental_protocol: In-vitro IDO1 enzyme assay (conversion of L-tryptophan to KYN)
# Assay type: biochemical
# particulars: read-out: IC50 (IDO1) Enz
pIC50: −log10 of the molar value.
quantity_kind: pIC50

Please review the entries below; each comes with its answer.
molecule	pIC50
C#Cc1cccc(Nc2c(N)oc3c(CC)nccc23)c1	> 6.70
Cc1cc(-c2nccc3c(Nc4ccc(F)c(C(F)(F)F)c4)c(N)oc23)ccn1	> 6.70
CCOc1cc2c(Nc3ccc(F)c(Cl)c3)c(N)oc2c(-c2ccccc2)n1	6.00 to 6.70

Enter reported pIC50 observed with Human indoleamine 2,3-dioxygenase1 (hIDO1) (Homo sapiens (Human), UniProt P14902) for Nc1oc2cnccc2c1Nc1cccc(-c2ccccc2)c1
< 6.00

Enter reported pIC50 observed with Human indoleamine 2,3-dioxygenase1 (hIDO1) (Homo sapiens (Human), UniProt P14902) for Nc1sc2ccc(Cl)cc2c1Nc1ccc(F)cc1
6.00 to 6.70

Enter reported pIC50 observed with Human indoleamine 2,3-dioxygenase1 (hIDO1) (Homo sapiens (Human), UniProt P14902) for Cc1ccc2sc(N)c(Nc3ccc(F)c(F)c3)c2c1
6.00 to 6.70

Enter reported pIC50 observed with Human indoleamine 2,3-dioxygenase1 (hIDO1) (Homo sapiens (Human), UniProt P14902) for Nc1oc2cnccc2c1Nc1ccc(Oc2ccccc2)cc1
< 6.00

Enter reported pIC50 observed with Human indoleamine 2,3-dioxygenase1 (hIDO1) (Homo sapiens (Human), UniProt P14902) for Nc1oc2cnccc2c1Nc1cccc2c1CCCC2
< 6.00
